- test target: RSV protein G (recombinant G protein) (respiratory syncytial virus (RSV), strain not stated)
- assay: SPR (Biacore), Fab on recombinant antigen
readout name: pKd
Hey, just a heads up that pKd is the negative log base 10 of the concentration in molar.

Sample answers from the record:
binder	value
Fab fragment of antibody clone 859 (Fab) VH: QVQLVESGGGVVQPGRSLRLSCAVSGSSFSKYGIHWVRQAPGKGLEWVAVISYDGSKKYFTDSVKGRFTIARDNSQNTVFLQMNSLRAEDTAVYYCATGGGVNVTSWSDVEHSSSLGYWGLGTLVTVSS light: DIQMTQSPSSLSASVGDRVTITCRASQGIRNYLAWYQQKPGKVPKLLVFAASTLQSGVPSRFSGSGSGTDFTLTISSLQPEDVATYYCQRYNSAPLTFGGGTKVEIKRTVAAPSVFIFPPSDEQLKSGTASVVCLLNNFYPREAKVQWKVDNALQSGNSQESVTEQDSKDSTYSLSSTLTLSKADYEKHKVYACEVTHQGLSSPVTKSFNRGEC	9.92
Fab fragment of antibody clone 853 (Fab) VH: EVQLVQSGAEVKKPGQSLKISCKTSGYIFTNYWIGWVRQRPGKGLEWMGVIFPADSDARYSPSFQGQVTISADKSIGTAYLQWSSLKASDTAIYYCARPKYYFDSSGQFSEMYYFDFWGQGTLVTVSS light: EIVLTQSPGTLSLSPGERATLSCRASQSVSSNYLAWYQQKPGQAPRLLIYGASSRAAGMPDRFSGSGSGTDFTLTISRLEPEDFAVYYCQQYGNSPLTFGGGTEVEIKRTVAAPSVFIFPPSDEQLKSGTASVVCLLNNFYPREAKVQWKVDNALQSGNSQESVTEQDSKDSTYSLSSTLTLSKADYEKHKVYACEVTHQGLSSPVTKSFNRGEC	9.10

In the following, a different binder is considered.
Determine from records and report pKd for Fab fragment of antibody clone 816 (Fab) VH: EVQLLESGGGLVQPGGSLRLSCVASGFTFSTYAMTWVRQAPGKGLEWVSVIRASGDSEIYADSVRGRFTISRDNSKNTVFLQMDSLRVEDTAVYFCANIGQRRYCSGDHCYGHFDYWGQGTLVTVSS light: DIVMTQSPLSLPVTPGEPASISCRSSQSLLHSDGRYYVDWYLQKPGQSPHLLIYLASNRASGVPDRFTGSGSGTDFTLKISRVEAEDVGVYYCMQGLHTPWTFGQGTKVDIKRTVAAPSVFIFPPSDEQLKSGTASVVCLLNNFYPREAKVQWKVDNALQSGNSQESVTEQDSKDSTYSLSSTLTLSKADYEKHKVYACEVTHQGLSSPVTKSFNRGEC 10.05
